Tested on: OVCAR-4 ovarian
Assay: NCI-60 one-dose screen, 48 h (100 = growth as untreated, 0 = no growth, -100 = all killed)
Conditions: 10 µM unless noted
The panel holds about 83,000 compounds, 20% with a hit somewhere; the sample as a whole holds those more often.
molecules and their reported growth
Please state the figure in %; there is no need to write the unit.

{"columns": ["molecule", "test_result"],
 "data": [
  ["O=C1C=CC(=O)N1c1cc(Cl)c(Cl)cc1Cl", 98.8]
]}

Note: attention shifts to another entry.
Q: Record OC(Cc1cc(CC(O)(C(F)(F)F)C(F)(F)F)nc(CC(O)(C(F)(F)F)C(F)(F)F)c1)(C(F)(F)F)C(F)(F)F : what is its growth with OVCAR-4 ovarian?
A: 6.38

Values from PubChem BioAssay (NCI)
